Target: Imipenem-hydrolyzing beta-lactamase (Enterobacter cloacae, UniProt P52663)
Test: Inhibition of Enterobacter cloacae Imi1
Property: pIC50; scope: individual compounds
Worth noting: pIC50 values are minus log10 of concentrations stated in mol/L.

See these solved cases before continuing.
{"SMILES ENTRY": "O=C([O-])C1=CS[C@@H]2/C(=C\\c3cc4n(n3)CCCC4)C(=O)N12.[Na+]", "pIC50": 7.05}
{"SMILES ENTRY": "COc1ccc(CN2CCc3sc(/C=C4/C(=O)N5C(C(=O)[O-])=CS[C@H]45)cc3C2)cc1.[Na+]", "pIC50": 7.57}
{"SMILES ENTRY": "O=C([O-])C1=CS[C@@H]2/C(=C/c3cn4c(n3)CNCC4)C(=O)N12.[Na+]", "pIC50": 7.55}

Shift focus to the following entry.
Ask: # input compound: O=C([O-])C1=CS[C@@H]2/C(=C\c3cc4n(n3)CCNC4)C(=O)N12.[Na+] ; wanted: its pIC50
Reply: 6.91

====

Biological target: Beta-lactamase (Enterobacter cloacae, UniProt P05364)
MEASUREMENT KIND: pIC50
Worth noting: pIC50 values are minus log10 of concentrations stated in mol/L.

Ask: # input compound: O=C([O-])C1=CS[C@@H]2/C(=C\c3cc4n(n3)CCNC4)C(=O)N12.[Na+] ; wanted: its pIC50
Reply: 8.52

Ask: # input compound: O=C([O-])C1=CS[C@@H]2/C(=C\c3cn4c(n3)CSCC4)C(=O)N12.[Na+] ; wanted: its pIC50
Reply: 8.70

Ask: # input compound: O=C([O-])C1=CS[C@@H]2/C(=C/c3cn4c(n3)CNCC4)C(=O)N12.[Na+] ; wanted: its pIC50
Reply: 8.22

Ask: # input compound: O=C([O-])C1=CS[C@@H]2/C(=C\c3cc4n(n3)CCCC4)C(=O)N12.[Na+] ; wanted: its pIC50
Reply: 8.52

Ask: # input compound: O=C([O-])C1=CS[C@@H]2/C(=C/c3cn4c(n3)CSCC4)C(=O)N12.[Na+] ; wanted: its pIC50
Reply: 6.38

Ask: # input compound: O=C([O-])C1=CS[C@@H]2/C(=C\c3cc4n(n3)CCS(=O)(=O)C4)C(=O)N12.[Na+] ; wanted: its pIC50
Reply: 8.70

====

Target: Beta-lactamase (Enterobacter cloacae, UniProt P05364)
Property: IC50; scope: individual molecules
Form entry: value (nM) — number only.

{"SMILES ENTRY": "O=C([O-])C1=CS[C@@H]2/C(=C\\c3cc4n(n3)CCOC4)C(=O)N12.[Na+]", "MEASUREMENT UNITS": "nM", "IC50": 6}
{"SMILES ENTRY": "COc1ccc(CN2CCc3sc(/C=C4/C(=O)N5C(C(=O)[O-])=CS[C@H]45)cc3C2)cc1.[Na+]", "MEASUREMENT UNITS": "nM", "IC50": 15}

Shift focus to the following entry.
Ask: Notebook entry, Beta-lactamase (Enterobacter cloacae, UniProt P05364) assay: IC50 of CN1CCn2cc(/C=C3/C(=O)N4C(C(=O)[O-])=CS[C@H]34)nc2C1.[Na+] = ?
Reply: 6
